// provenance: patent US20230340012A1

Test system: cancer cells
Test: MTT cytotoxic assay of esterification products (Cytotoxicity activity)
Assay type: cell-based, human
Conditions: MTT cytotoxic assay, isolated esterification products of E4A
reported endpoint: Cytotoxicity activity

>  <compound>
CC(C)=CC(=O)OCC12C(O)CC3(C)C(=CCC4C5(C)CCC(O)C(C)(CO)C5CCC43C)C1CC(C)(C)C(O)C2O (stereo not drawn)

>  <Cytotoxicity activity>
moderate

$$$$
>  <compound>
CC(C)=CC(=O)OCC1(C)C(OC(=O)C=C(C)C)CCC2(C)C1CCC1(C)C2CC=C2C3CC(C)(C)C(OC(=O)C=C(C)C)C(O)C3(COC(=O)C=C(C)C)C(OC(=O)C=C(C)C)CC21C (stereo not drawn)

>  <Cytotoxicity activity>
weak

$$$$
>  <compound>
CCC(CC)C(=O)OCC12C(OC(=O)C(CC)CC)CC3(C)C(=CCC4C5(C)CCC(O)C(C)(CO)C5CCC43C)C1CC(C)(C)C(O)C2O (stereo not drawn)

>  <Cytotoxicity activity>
moderate

$$$$
>  <compound>
CC=C(C)C(=O)OCC1(C)C(O)CCC2(C)C1CCC1(C)C2CC=C2C3CC(C)(C)C(O)C(O)C3(CO)C(O)CC21C (stereo not drawn)

>  <Cytotoxicity activity>
moderate

$$$$
>  <compound>
CCC(CC)C(=O)OCC1(C)C(OC(=O)C(CC)CC)CCC2(C)C1CCC1(C)C2CC=C2C3CC(C)(C)C(O)C(O)C3(COC(=O)C(CC)CC)C(O)CC21C (stereo not drawn)

>  <Cytotoxicity activity>
moderate

$$$$
>  <compound>
CC(C)=CC(=O)OCC1(C)C(OC(=O)C=C(C)C)CCC2(C)C1CCC1(C)C2CC=C2C3CC(C)(C)C(OC(=O)C=C(C)C)C(O)C3(COC(=O)C=C(C)C)C(O)CC21C (stereo not drawn)

>  <Cytotoxicity activity>
weak

$$$$
>  <compound>
CC(C)=CC(=O)OCC1(C)C(OC(=O)C=C(C)C)CCC2(C)C1CCC1(C)C2CC=C2C3CC(C)(C)C(O)C(O)C3(COC(=O)C=C(C)C)C(OC(=O)C=C(C)C)CC21C (stereo not drawn)

>  <Cytotoxicity activity>
weak

$$$$
>  <compound>
C=CCCC(=O)OCC1(C)C(OC(=O)CCC=C)CCC2(C)C1CCC1(C)C2CC=C2C3CC(C)(C)C(O)C(O)C3(COC(=O)CCC=C)C(OC(=O)CCC=C)CC21C (stereo not drawn)

>  <Cytotoxicity activity>
weak

$$$$

Form field: reported Cytotoxicity activity of CC=C(C)C(=O)OCC12C(O)CC3(C)C(=CCC4C5(C)CCC(O)C(C)(CO)C5CCC43C)C1CC(C)(C)C(OC(=O)C(C)=CC)C2OC(=O)C(C)=CC (stereo not drawn) moderate

Can you check CCCCCC(=O)OCC12C(OC(=O)CCCCC)CC3(C)C(=CCC4C5(C)CCC(O)C(C)(CO)C5CCC43C)C1CC(C)(C)C(O)C2O (stereo not drawn) next? moderate

Can you check CC(C)=CC(=O)OCC1(C)C(O)CCC2(C)C1CCC1(C)C2CC=C2C3CC(C)(C)C(OC(=O)C=C(C)C)C(O)C3(COC(=O)C=C(C)C)C(O)CC21C (stereo not drawn) next? moderate

Can you check C=CCCC(=O)OCC1(C)C(O)CCC2(C)C1CCC1(C)C2CC=C2C3CC(C)(C)C(OC(=O)CCC=C)C(O)C3(COC(=O)CCC=C)C(O)CC21C (stereo not drawn) next? moderate

Can you check CC=C(C)C(=O)OC1C(OC(=O)C(C)=CC)C2(CO)C(O)CC3(C)C(=CCC4C5(C)CCC(OC(=O)C(C)=CC)C(C)(CO)C5CCC43C)C2CC1(C)C (stereo not drawn) next? moderate

Can you check CCC(CC)C(=O)OCC1(C)C(OC(=O)C(CC)CC)CCC2(C)C1CCC1(C)C2CC=C2C3CC(C)(C)C(O)C(OC(=O)C(CC)CC)C3(COC(=O)C(CC)CC)C(O)CC21C (stereo not drawn) [Compound E14] next? weak

* * *

Test system: cancer cells
Assay: MTT cytotoxic assay of esterification products (Cytotoxicity activity)
Type: cell-based, human
Conditions: esterification products isolated with HPLC; graded strong / moderate / weak
reported endpoint: Cytotoxicity activity

>  <molecule>
CC=C(C)C(=O)OCC1(C)C(O)CCC2(C)C1CCC1(C)C2CC=C2C3CC(C)(C)C(OC(C)=O)C(O)C3(CO)C(O)CC21C (stereo not shown)

>  <assay target>
cancer cells

>  <observed value>
moderate

$$$$
>  <molecule>
CC=CC(=O)OCC12C(O)CC3(C)C(=CCC4C5(C)CCC(OC(=O)C=CC)C(C)(COC(=O)C(C)=CC)C5CCC43C)C1CC(C)(C)C(O)C2O (stereo not shown)

>  <assay target>
cancer cells

>  <observed value>
moderate

$$$$
>  <molecule>
C=CCCC(=O)OC1C(O)C2(CO)C(O)CC3(C)C(=CCC4C5(C)CCC(O)C(C)(COC(=O)C(C)=CC)C5CCC43C)C2CC1(C)C (stereo not shown)

>  <assay target>
cancer cells

>  <observed value>
moderate

$$$$

* * *

System: cancer cells
Assay: MTT cytotoxic assay of esterification products (Cytotoxicity activity)
Format: cell-based, human
Conditions: esterification products isolated with HPLC; graded strong / moderate / weak
reported endpoint: Cytotoxicity activity

Some entries whose results are on file:
>  <molecule>
CC=C(C)C(=O)OCC1(C)C(OC(=O)C(C)=CC)CCC2(C)C1CCC1(C)C2CC=C2C3CC(C)(C)C(OC(=O)C(C)=CC)C(O)C3(COC(=O)C(C)=CC)C(O)CC21C (stereo not drawn)

>  <Cytotoxicity activity>
weak

$$$$
>  <molecule>
CC=C(C)C(=O)OCC1(C)C(OC(C)=O)CCC2(C)C1CCC1(C)C2CC=C2C3CC(C)(C)C(OC(C)=O)C(O)C3(COC(=O)C(C)=CC)C(O)CC21C (stereo not drawn)

>  <Cytotoxicity activity>
weak

$$$$
>  <molecule>
CC=CC(=O)OC1C(O)C2(COC(=O)C(C)=CC)C(O)CC3(C)C(=CCC4C5(C)CCC(O)C(C)(COC(=O)C(C)=CC)C5CCC43C)C2CC1(C)C (stereo not drawn)

>  <Cytotoxicity activity>
moderate

$$$$
>  <molecule>
CC=C(C)C(=O)OCC1(C)C(O)CCC2(C)C1CCC1(C)C2CC=C2C3CC(C)(C)C(OC(=O)C(C)=CC)C(O)C3(COC(=O)C(C)=CC)C(O)CC21C (stereo not drawn)

>  <Cytotoxicity activity>
moderate

$$$$
>  <molecule>
CC=C(C)C(=O)OCC1(C)C(O)CCC2(C)C1CCC1(C)C2CC=C2C3CC(C)(C)C(OC(=O)C=C(C)C)C(OC(=O)C=C(C)C)C3(COC(=O)C(C)=CC)C(O)CC21C (stereo not drawn)

>  <Cytotoxicity activity>
weak

$$$$

# context switch: different molecule, same Cytotoxicity activity
Form field: reported Cytotoxicity activity of CC=C(C)C(=O)OCC1(C)C(O)CCC2(C)C1CCC1(C)C2CC=C2C3CC(C)(C)C(O)C(OC(=O)CCCCC)C3(COC(=O)C(C)=CC)C(O)CC21C (stereo not drawn) moderate

* * *

Test system: cancer cells
Test: MTT cytotoxic assay of esterification products (Cytotoxicity activity)
Assay type: cell-based, human
Details: esterification products of core compound E4A with (2E)-2-pentenoyl chloride (2pe = 2-pentenoyl)

>  <molecule>
CC1(C)CC2C3=CCC4C5(C)CCC(O)C(C)(COC(=O)c6ccccc6)C5CCC4(C)C3(C)CC(O)C2(CO)C(OC(=O)c2ccccc2)C1OC(=O)c1ccccc1 (stereo not drawn) [Compound K21]

>  <assay target>
cancer cells

>  <Cytotoxicity activity>
moderate

$$$$
>  <molecule>
CC1(C)CC2C3=CCC4C5(C)CCC(O)C(C)(COC(=O)c6ccccc6)C5CCC4(C)C3(C)CC(O)C2(CO)C(OC(=O)c2ccccc2)C1O (stereo not drawn) [Compound K30]

>  <assay target>
cancer cells

>  <Cytotoxicity activity>
moderate

$$$$
>  <molecule>
CC1(C)CC2C3=CCC4C5(C)CCC(O)C(C)(COC(=O)c6ccccc6)C5CCC4(C)C3(C)CC(O)C2(CO)C(O)C1OC(=O)c1ccccc1 (stereo not drawn) [Compound K29]

>  <assay target>
cancer cells

>  <Cytotoxicity activity>
moderate

$$$$

* * *

System: cancer cells
Assay: MTT cytotoxic assay of esterification products (Cytotoxicity activity)
Format: cell-based, human
Details: esterification products of core compound E4A with Octanoyl chloride (Oct = Octanoyl)
Experimental: The peaks, fractions and compounds are selected according to the activities of times studies and the changes of peaks. Selecting the HPLC fractions for isolation is according to the cytotoxic activity of the reaction product obtained at a specific time. The compounds having strong to weak activities are selected and isolated. […] Method: 40 mg of triterpene core (fraction IV) was dissolved in 1 ml pyridine in a 50 ml tube. […] Structures are determined with NMR. […]

>  <compound>
CC1(C)CC2C3=CCC4C5(C)CCC(OC(=O)c6ccccc6)C(C)(CO)C5CCC4(C)C3(C)CC(O)C2(COC(=O)c2ccccc2)C(O)C1O (stereo not shown) [Compound K27]

>  <assay target>
cancer cells

>  <Cytotoxicity activity>
moderate

$$$$
>  <compound>
CC1(C)CC2C3=CCC4C5(C)CCC(O)C(C)(COC(=O)c6ccccc6)C5CCC4(C)C3(C)CC(OC(=O)c3ccccc3)C2(COC(=O)c2ccccc2)C(OC(=O)c2ccccc2)C1OC(=O)c1ccccc1 (stereo not shown) [Compound K16]

>  <assay target>
cancer cells

>  <Cytotoxicity activity>
weak

$$$$
>  <compound>
CC1(C)CC2C3=CCC4C5(C)CCC(O)C(C)(COC(=O)c6ccccc6)C5CCC4(C)C3(C)CC(O)C2(CO)C(O)C1OC(=O)c1ccccc1 (stereo not shown) [Compound K29]

>  <assay target>
cancer cells

>  <Cytotoxicity activity>
moderate

$$$$
>  <compound>
CC1(C)CC2C3=CCC4C5(C)CCC(OC(=O)c6ccccc6)C(C)(COC(=O)c6ccccc6)C5CCC4(C)C3(C)CC(OC(=O)c3ccccc3)C2(COC(=O)c2ccccc2)C(OC(=O)c2ccccc2)C1O (stereo not shown) [Compound K18]

>  <assay target>
cancer cells

>  <Cytotoxicity activity>
weak

$$$$
